target: T1, human GPRC5A, on 293T cells (human, UniProt Q8NFJ5 1-357); experiment: FACS on 293T-GPRC5A cells, antibody at 2 µg/mL; control tubes 8.30 and 8.41
T1 construct: whole, on cells; also called 293T-GPRC5A
T1 sequence (Q8NFJ5 whole entry): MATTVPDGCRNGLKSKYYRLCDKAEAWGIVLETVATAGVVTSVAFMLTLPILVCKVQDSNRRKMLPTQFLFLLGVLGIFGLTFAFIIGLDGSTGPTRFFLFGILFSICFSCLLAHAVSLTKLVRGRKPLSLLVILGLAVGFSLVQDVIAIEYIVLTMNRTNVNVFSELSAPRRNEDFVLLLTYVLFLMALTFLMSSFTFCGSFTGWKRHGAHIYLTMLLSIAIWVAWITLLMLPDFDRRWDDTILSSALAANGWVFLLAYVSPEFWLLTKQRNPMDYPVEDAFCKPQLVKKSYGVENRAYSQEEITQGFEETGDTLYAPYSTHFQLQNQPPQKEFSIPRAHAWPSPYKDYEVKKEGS
# maps each entry to its FACS result

humanized antibody 6E97 (hz) (antibody, V domains shown) VH: QVQLVQSGAEVKKPGASVKVSCKASGYTFPYYVIHWVRQAPGQGLEWIGYINPYNAGTKYNEKFKGRATLTSDKSTSTAYMELSSLRSEDTAVYYCARGGVRRYFDYWGQGTTVTVSS VL: DIQLTQSPSTLSASVGDRVTITCRASQDIGSNLNWLQQKPGGTIKRLISATSSLDSGVPSRFSGSRSGSEYTLTISSLQPDDFATYYCLQYATFPYTFGQGTRLEIKR ... 8.54
humanized antibody 26D1 (hz) (antibody, V domains shown) VH: QVQLVQSGAEVKKPGASVKVSCKASGYTFTSYTIQWIKQAPGQGLEWIGYIIPSSGYTNYNQKFKDKATLTADKSSNTAYMELSSLTSEDTAVYYCANNYGNWGFTYWGQGTTVTVSS VL: DIQMTQSPSTLSASVGDRVTITCKASQNVGSAVTWYQQKPGKAPRLLIYSASNRYTGVPDRFSGSGSGTEFTLTISSLQPDDFATYFCQQYSNYPLTFGQGTRLEIKR ... 8.46

Problem: # input binder: humanized antibody 9D7 (hz) (antibody, V domains shown) VH: QVQLQESGPGLVKPSETLSLTCTVSGYSITSDYAWNWIRQPPGKGLEWMGYISYSGSATYSPSLKSRITISRDTSKNQFSLKLSSVTAADTAVYYCARGGIAGRGRWGAMDYWGQGTTVTVSS VL: DIQMTQSPSSLSASVGDRVTITCKASQNVGTNVAWYQQKPGQSPKALIYSASYRDSGVPDRFSGSGSGTDFTLTISSLQPEDFATYYCQQYKSYPLTFGQGTRLEIKR ; wanted: its FACS result
Result: 8.34

Problem: # input binder: humanized antibody 24F5 (hz) (antibody, V domains shown) VH: QVQLVQSGAEVKKPGASVKVSCKASGYTFPYYVMHWVRQAPGQGLEWIGYINPYNDGTKYNEKFKGRATLTSDKSTSTAYMELSSLRSEDTAVYYCARGGVRRYFDYWGQGTTVTVSS VL: DIQMTQSPSTLSASVGDRVTITCRASQDIGSNLNWLQQKPGGTIKRLIYATSSLDSGVPSRFSGSRSGSEYTLTISSLQPDDFATYYCLQYATFPYTFGQGTRLEIKR ; wanted: its FACS result
Result: 8.45
